Data provenance is patent US6914045B2.

Record form. Attribute: MIC Coagulase Negative Staphylococcus (GC 4547). Fill in for each entry.
System: Staphylococcus sp.
Assay: in vitro antibacterial evaluation, MIC by broth dilution
Assay type: cell-based
Conditions: broth dilution, 18 hours at 35° C.
Source text: Methods for in vitro Antibacterial Evaluation (Table 1) […]
All answers are understood in µg/mL, so give the number only.

Problem: Consider the molecule CC(c1ccccc1)C1NC(=O)CNC(=O)C(CO)NC(=O)C(C(O)C2CNC(=N)N2C2OC(CO)C(O)C(O)C2O)NC(=O)C(C(O)C2CNC(=N)N2)NC(=O)C(Cc2ccc(OC3OC(CO)C(OC4OC(COCC=Cc5ccccc5)C(O)C(O)C4O)C(O)C3O)cc2)NC1=O (centres unmarked) [Example 242] and give its measured MIC Coagulase Negative Staphylococcus (GC 4547).
Result: 8

Problem: Form field: reported MIC Coagulase Negative Staphylococcus (GC 4547) of CC(=O)OCC1OC(OC2C(CO)OC(Oc3ccc(CC4NC(=O)C(C(C)c5ccccc5)NC(=O)CNC(=O)C(CO)NC(=O)C(C(O)C5CNC(=N)N5C5OC(CO)C(O)C(O)C5O)NC(=O)C(C(O)C5CNC(=N)N5)NC4=O)cc3)C(O)C2O)C(O)C(OC(=O)CCC(C)C)C1O (centres unmarked) [Example 270b]
Result: 4

====

Tested on: Staphylococcus sp.
Assay: in vitro antibacterial evaluation, MIC by broth dilution
Assay type: cell-based
Conditions: strain GC 3051; broth dilution, 18 hours at 35° C.
readout.type: MIC Staphylococcus aureus (GC 3051) (µg/mL)
Quick note: give the figure in µg/mL, leave out the unit.

Problem: // lookup MIC Staphylococcus aureus (GC 3051) for CC(c1ccccc1)C1NC(=O)CNC(=O)C(CO)NC(=O)C(C(O)C2CNC(=N)N2C2OC(CO)C(O)C(O)C2O)NC(=O)C(C(O)C2CNC(=N)N2)NC(=O)C(Cc2ccc3oc(SCc4ccc(-c5ccccc5)cc4)nc3c2)NC1=O (centres unmarked)
Result: 32

====

System: Enterococcus sp.
Experiment: in vitro antibacterial evaluation, MIC by broth dilution
Format: cell-based
Settings: broth dilution, inoculum 5×10^5 CFU/mL, 18 hours at 35° C.; strain GC 4556
readout.type: MIC Enterococcus faecium (GC 4556) (µg/mL)
Write the answer as a number in µg/mL, unit excluded.

Problem: For COc1ccc2cc(COCC3OC(OC4C(CO)OC(Oc5ccc(CC6NC(=O)C(C(C)c7ccccc7)NC(=O)CNC(=O)C(CO)NC(=O)C(C(O)C7CNC(=N)N7C7OC(CO)C(O)C(O)C7O)NC(=O)C(C(O)C7CNC(=N)N7)NC6=O)cc5)C(O)C4O)C(O)C(O)C3O)ccc2c1 (stereo not shown) , what is its reported MIC Enterococcus faecium (GC 4556)?
Result: 8

Problem: Find the recorded MIC Enterococcus faecium (GC 4556) belonging to CC(c1ccccc1)C1NC(=O)CNC(=O)C(CO)NC(=O)C(C(O)C2CNC(=N)N2C2OC(CO)C(O)C(O)C2O)NC(=O)C(C(O)C2CNC(=N)N2)NC(=O)C(Cc2ccc(OC3OC(CO)C(OC4OC5COC6(CC7CCC6(C)C7(C)C)OC5C(O)C4O)C(O)C3O)cc2)NC1=O (stereo not shown) [Example 215] and report it.
Result: 1

====

System: Staphylococcus sp.
Assay: in vitro antibacterial evaluation, MIC by broth dilution
Assay type: cell-based
Conditions: broth dilution, 18 hours at 35° C.; strain GC 4543
readout.type: MIC Staphylococcus aureus-SMITH (GC 4543) (µg/mL)
Hi! Could you send only the number? It should be in µg/mL, unit omitted.

Problem: Give Staphylococcus sp. MIC Staphylococcus aureus-SMITH (GC 4543) for CC(c1ccccc1)C1NC(=O)CNC(=O)C(CO)NC(=O)C(C(O)C2CN(Cc3ccc(C(F)(F)F)cc3)C(=N)N2C2OC(CO)C(O)C(O)C2O)NC(=O)C(C(O)C2CNC(=N)N2)NC(=O)C(Cc2ccc(OC3OC(CO)C(OC4OC5COC6(OC5C(O)C4O)C4CC5CC(C4)CC6C5)C(O)C3O)cc2)NC1=O (centres unmarked) [Example 226]
Result: 8
